Listed binders paired with reported SPOT signal as a fraction of Bim BH3's signal on the same receptor and array
- TESTED_ON: T1, Bfl-1, Q16548
- T1 chain: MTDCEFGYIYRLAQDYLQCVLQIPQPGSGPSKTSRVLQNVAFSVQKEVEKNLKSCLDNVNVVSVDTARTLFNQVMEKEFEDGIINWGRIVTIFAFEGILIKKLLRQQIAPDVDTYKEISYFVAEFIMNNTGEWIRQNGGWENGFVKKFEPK
- ASSAY_NOTES: peptide SPOT array, c-Myc-tagged receptor at 1 uM or 100 nM, anti-c-Myc-Cy3
API note: the answer field is a bare number with no unit suffix.

Please review the entries below; each comes with its answer.
BINDER	RECORDED_MEASUREMENT
NDDTPWIARTLDNLADELTAILSAPA [GBP6]	0.04
HHSSQEMSSEYREYLDSFGKCPGGRN [PCYT2]	0.03
NMSNYSSSSLLSGAGKDSLVEHDEEF [KIAA0367]	0.01

As a next step, examine the binder that follows.
What does the data say about its SPOT signal as a fraction of Bim BH3's signal on the same receptor and array? Entry: VLAPVQLGKWLVLFLDEINLPDMDKY [DYNC1H1] 0.07
